target: BRM (Homo sapiens, UniProt P51531); experiment: ATPase catalytic activity assay of BRM (ADP-Glo); assay type: biochemical; settings: read-out: BRM IC50 (μM)*
Sequence (P51531 whole entry): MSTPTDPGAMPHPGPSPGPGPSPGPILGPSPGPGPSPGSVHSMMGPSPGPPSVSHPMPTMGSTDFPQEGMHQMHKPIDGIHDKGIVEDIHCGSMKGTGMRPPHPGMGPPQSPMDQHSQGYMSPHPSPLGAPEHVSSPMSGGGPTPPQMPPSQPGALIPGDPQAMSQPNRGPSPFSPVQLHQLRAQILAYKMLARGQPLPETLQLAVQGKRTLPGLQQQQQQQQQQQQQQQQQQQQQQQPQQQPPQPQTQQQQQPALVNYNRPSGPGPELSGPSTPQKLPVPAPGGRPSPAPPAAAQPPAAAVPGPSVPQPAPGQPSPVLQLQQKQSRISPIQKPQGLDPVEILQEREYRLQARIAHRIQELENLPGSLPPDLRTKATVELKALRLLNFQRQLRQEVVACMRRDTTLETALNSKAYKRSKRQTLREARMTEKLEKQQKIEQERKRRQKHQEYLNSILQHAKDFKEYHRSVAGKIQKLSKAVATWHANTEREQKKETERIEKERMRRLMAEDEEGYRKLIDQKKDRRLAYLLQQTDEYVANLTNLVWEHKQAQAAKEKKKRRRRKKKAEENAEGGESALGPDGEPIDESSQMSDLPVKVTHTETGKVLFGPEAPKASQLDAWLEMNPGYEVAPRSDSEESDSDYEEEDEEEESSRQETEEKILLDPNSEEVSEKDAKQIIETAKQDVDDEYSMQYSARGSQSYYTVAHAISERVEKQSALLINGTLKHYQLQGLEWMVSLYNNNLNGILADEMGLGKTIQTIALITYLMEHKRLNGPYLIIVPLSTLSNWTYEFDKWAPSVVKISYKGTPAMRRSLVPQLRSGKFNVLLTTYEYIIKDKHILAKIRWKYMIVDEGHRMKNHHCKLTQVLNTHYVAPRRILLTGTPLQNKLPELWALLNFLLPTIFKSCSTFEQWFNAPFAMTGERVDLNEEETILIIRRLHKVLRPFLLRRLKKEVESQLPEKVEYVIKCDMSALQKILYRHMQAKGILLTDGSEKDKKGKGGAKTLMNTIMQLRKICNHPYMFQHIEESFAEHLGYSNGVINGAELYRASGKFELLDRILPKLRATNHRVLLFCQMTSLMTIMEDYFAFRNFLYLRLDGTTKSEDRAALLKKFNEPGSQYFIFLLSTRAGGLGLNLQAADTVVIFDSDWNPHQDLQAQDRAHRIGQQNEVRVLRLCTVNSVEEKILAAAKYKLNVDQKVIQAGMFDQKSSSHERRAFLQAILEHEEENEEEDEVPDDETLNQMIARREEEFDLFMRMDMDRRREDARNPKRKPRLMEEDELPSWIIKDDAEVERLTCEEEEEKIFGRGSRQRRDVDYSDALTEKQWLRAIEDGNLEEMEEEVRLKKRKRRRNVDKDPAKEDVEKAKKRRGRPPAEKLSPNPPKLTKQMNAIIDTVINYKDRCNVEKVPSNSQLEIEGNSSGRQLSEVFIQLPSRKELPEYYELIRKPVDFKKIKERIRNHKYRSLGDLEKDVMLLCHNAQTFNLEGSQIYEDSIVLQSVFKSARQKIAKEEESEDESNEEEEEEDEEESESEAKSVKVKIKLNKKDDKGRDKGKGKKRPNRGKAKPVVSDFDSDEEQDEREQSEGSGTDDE
Overview of reported IC50 across a group of compounds:

Here are 3 compounds together with their reported answers.
Cc1nccc(-c2cccc(-c3csc(NC(=O)CNC(=O)c4ccc5c(c4)[C@](C)(CO)CCC5)n3)n2)n1 :: 0.1 to 1 µM
COc1cccc(-c2csc(NC(=O)C3(NC(=O)c4ccc5c(c4)[C@](C)(C#N)COC5)CC3(F)F)n2)c1 (some centres unmarked) :: 0.1 to 1 µM
CC(=O)N(C)c1cc(-c2cccc(-c3csc(NC(=O)CNC(=O)c4cccc(S(=O)(=O)C(C)C)c4)n3)c2)ccn1 :: < 0.1 µM

What value of IC50 has been recorded for this entry: C[C@@H]1CN(c2cccc(-c3csc(NC(=O)CNC(=O)c4cccc(C5(C)COC5)c4)n3)n2)C[C@H](C)O1
< 0.1 µM

What value of IC50 has been recorded for this entry: Cc1cc(-c2cccc(-c3csc(NC(=O)CNC(=O)c4ccc5c(c4)[C@](C)(CO)CCC5)n3)c2)cc(C)n1
< 0.1 µM

What value of IC50 has been recorded for this entry: C[C@@H]1CN(c2cccc(-c3csc(NC(=O)CNC(=O)c4cccc([C@]5(F)C[C@H](F)C5)c4)n3)n2)C[C@H](C)O1
< 0.1 µM

What value of IC50 has been recorded for this entry: COc1cccc(-c2csc(NC(=O)CNC(=O)c3ccc4c(c3)C(C)(F)CCCO4)n2)c1 (stereo in doubt) [Compound 325]
0.1 to 1 µM

What value of IC50 has been recorded for this entry: CC(C)S(=O)(=O)c1cccc(C(=O)NCC(=O)Nc2nc(-c3cccc(-c4ccnc(CN)c4)c3)cs2)c1
0.1 to 1 µM

What value of IC50 has been recorded for this entry: C[C@@H]1CN(c2cccc(-c3csc(NC(=O)CNC(=O)c4ccc5c(c4)[C@@](C)(C#N)CN5C)n3)c2)C[C@H](C)O1
0.1 to 1 µM

What value of IC50 has been recorded for this entry: C[C@@H]1CN(c2cccc(-c3csc(NC(=O)CNC(=O)c4cccc([C@]5(C)C[C@@H](O)C5)c4)n3)c2)C[C@H](C)O1
0.1 to 1 µM

* * *

Overview of reported IC50 across a group of molecules:
molecular target: BRG-1 (Homo sapiens); assay: ATPase catalytic activity assay of BRG-1 (ADP-Glo); assay type: biochemical; settings: ATPase catalytic activity, ADP-Glo; read-out: BRG1 IC50 (μM)*

COC(=O)N1CCC[C@@H](c2csc(NC(=O)CNC(=O)c3ccc4c(c3)[C@@](C)(C#N)COC4)n2)C1 (stereo in doubt) :: 0.1 to 1 µM
Cc1ccc(C(=O)NCC(=O)Nc2nc(-c3cccc(N4C[C@@H](C)O[C@@H](C)C4)c3)cs2)cc1S(=O)(=O)C(C)C :: 0.1 to 1 µM

What value of IC50 has been recorded for this entry: C[C@@H]1CN(c2cccc(-c3csc(NC(=O)CNC(=O)c4ccc5c(c4)[C@](F)(C#N)COC5)n3)n2)C[C@H](C)O1 (single isomer, unassigned)
1 to 5 µM

* * *

biological target: BRG-1 (Homo sapiens, UniProt P51532); assay: ATPase catalytic activity assay of BRG-1 (ADP-Glo); type: biochemical; details: ATPase catalytic activity, ADP-Glo, 30 nM BRG-1, 400 μM ATP; read-out: BRG1 IC50 (μM)*
Sequence (P51532 whole entry): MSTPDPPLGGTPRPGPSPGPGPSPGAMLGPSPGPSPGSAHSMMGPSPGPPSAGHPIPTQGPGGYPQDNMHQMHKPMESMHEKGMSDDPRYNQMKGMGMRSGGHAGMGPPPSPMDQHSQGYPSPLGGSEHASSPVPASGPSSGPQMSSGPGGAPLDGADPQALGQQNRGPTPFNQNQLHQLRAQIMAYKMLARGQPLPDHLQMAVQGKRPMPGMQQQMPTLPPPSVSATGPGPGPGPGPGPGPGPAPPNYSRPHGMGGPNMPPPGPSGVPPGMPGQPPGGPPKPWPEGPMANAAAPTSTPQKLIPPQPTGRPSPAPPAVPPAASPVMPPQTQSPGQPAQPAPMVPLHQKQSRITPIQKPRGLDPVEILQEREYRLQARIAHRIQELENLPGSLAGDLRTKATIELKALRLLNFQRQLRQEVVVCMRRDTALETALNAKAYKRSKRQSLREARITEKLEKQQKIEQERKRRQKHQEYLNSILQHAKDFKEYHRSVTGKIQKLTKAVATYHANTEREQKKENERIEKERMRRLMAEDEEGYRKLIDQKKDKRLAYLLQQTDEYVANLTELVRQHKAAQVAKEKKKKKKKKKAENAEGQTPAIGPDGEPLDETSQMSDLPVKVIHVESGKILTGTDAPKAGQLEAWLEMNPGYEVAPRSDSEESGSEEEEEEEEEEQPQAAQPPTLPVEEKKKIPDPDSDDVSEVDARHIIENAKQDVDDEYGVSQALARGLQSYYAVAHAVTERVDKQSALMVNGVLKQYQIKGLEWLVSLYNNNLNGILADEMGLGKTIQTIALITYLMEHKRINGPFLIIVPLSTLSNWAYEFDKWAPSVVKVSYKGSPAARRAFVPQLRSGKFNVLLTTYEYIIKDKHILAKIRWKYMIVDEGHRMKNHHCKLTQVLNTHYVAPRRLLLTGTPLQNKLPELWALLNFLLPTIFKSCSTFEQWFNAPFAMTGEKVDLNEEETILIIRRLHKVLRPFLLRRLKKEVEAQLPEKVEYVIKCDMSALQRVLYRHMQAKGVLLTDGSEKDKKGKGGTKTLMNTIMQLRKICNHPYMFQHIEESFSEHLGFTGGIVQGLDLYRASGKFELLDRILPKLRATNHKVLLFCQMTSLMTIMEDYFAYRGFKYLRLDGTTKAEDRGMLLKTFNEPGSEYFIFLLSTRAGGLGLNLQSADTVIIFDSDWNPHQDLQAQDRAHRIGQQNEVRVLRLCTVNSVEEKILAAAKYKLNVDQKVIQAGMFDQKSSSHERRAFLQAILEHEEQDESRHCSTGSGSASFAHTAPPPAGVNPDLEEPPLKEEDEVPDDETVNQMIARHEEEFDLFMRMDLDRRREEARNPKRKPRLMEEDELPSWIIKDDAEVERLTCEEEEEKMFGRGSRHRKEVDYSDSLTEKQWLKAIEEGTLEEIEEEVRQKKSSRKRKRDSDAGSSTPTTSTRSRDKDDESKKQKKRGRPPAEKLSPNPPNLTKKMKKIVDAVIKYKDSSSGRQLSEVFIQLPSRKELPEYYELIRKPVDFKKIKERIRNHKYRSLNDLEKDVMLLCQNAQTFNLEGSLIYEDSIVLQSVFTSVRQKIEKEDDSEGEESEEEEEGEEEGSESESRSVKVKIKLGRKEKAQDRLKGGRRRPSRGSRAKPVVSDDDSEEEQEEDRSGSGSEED
property measured: IC50

C[C@@H]1CN(c2cccc(-c3csc(NC(=O)CNC(=O)c4ccc5c(c4)[C@](C)(O)COC5)n3)c2)C[C@H](C)O1 [Compound 438] :: 1 to 5 µM
COc1cccc(-c2csc(NC(=O)CNC(=O)c3ccc4c(c3)C(C)(C#N)CCO4)n2)c1 (stereo in doubt) [Compound 431] :: 0.1 to 1 µM
C[C@@H]1CN(c2cccc(-c3csc(NC(=O)CNC(=O)c4cccc(C5(F)CCOC5)c4)n3)n2)C[C@H](C)O1 (stereo in doubt) [Compound 441] :: > 5 µM

What value of IC50 has been recorded for this entry: COc1cccc(-c2csc(NC(=O)CNC(=O)c3ccc4c(c3)C(C)(C#N)CCN4)n2)c1 (stereo not shown) [Compound 415]
> 5 µM

What value of IC50 has been recorded for this entry: C[C@@H]1CN(c2cccc(-c3csc(NC(=O)CNC(=O)c4ccc5c(c4)C(C#N)(CO)CCO5)n3)c2)C[C@H](C)O1 (stereo partly shown) [Compound 444]
0.1 to 1 µM

What value of IC50 has been recorded for this entry: C[C@@H]1CN(c2cccc(-c3csc(NC(=O)CNC(=O)c4cccc(C5(C#N)COC5)c4)n3)c2)C[C@H](C)O1 [Compound 418]
0.1 to 1 µM

What value of IC50 has been recorded for this entry: CC1(C#N)CCOc2ccc(C(=O)NCC(=O)Nc3nc(-c4cccc(C5CC5)n4)cs3)cc21 (stereo in doubt) [Compound 439]
1 to 5 µM

* * *

target: BRG-1 (Homo sapiens, UniProt P51532); experiment: ATPase catalytic activity assay of BRG-1 (ADP-Glo); assay type: biochemical; settings: ATPase catalytic activity, ADP-Glo, 30 nM BRG-1, 400 μM ATP; read-out: BRG1 IC50 (μM)*
property measured: IC50

Here are 3 molecules together with their reported answers.
C[C@@H]1CN(c2cccc(-c3csc(NC(=O)CNC(=O)c4cccc([C@H]5COC[C@H]5O)c4)n3)c2)C[C@H](C)O1 (relative stereo) :: > 5 µM
C[C@@H]1CN(c2cccc(-c3csc(NC(=O)CNC(=O)c4cncc(C(C)(C)C)c4)n3)c2)C[C@H](C)O1 :: 0.1 to 1 µM
CC1(C#N)CCOc2ccc(C(=O)NCC(=O)Nc3nc(-c4cccc([C@@H]5CC5(F)F)c4)cs3)cc21 (stereo in doubt) :: 1 to 5 µM

Moving on to another molecule below.
Give BRG-1 (Homo sapiens, UniProt P51532) IC50 for CC1(C#N)CCOc2ccc(C(=O)NCC(=O)Nc3nc(-c4cccc([C@H]5CC5(F)F)c4)cs3)cc21 (stereo in doubt)
0.1 to 1 µM

* * *

Overview of reported Emax across a group of molecules:
molecular target: BRG-1 (Homo sapiens, UniProt P51532); experiment: ATPase catalytic activity assay of BRG-1 (ADP-Glo); assay type: biochemical; settings: ATPase catalytic activity, ADP-Glo; read-out: BRG1 Max % Inhibition

C[C@@H]1CN(c2cccc(-c3csc(NC(=O)CNC(=O)c4ccc5c(c4)C4(CC4)COC5)n3)n2)C[C@H](C)O1 [Compound 406] :: > 95%
CC(C)(CN)c1cccc(C(=O)NCC(=O)Nc2nc(-c3cccc(-c4cccc(C#N)c4)c3)cs2)c1 [Compound 55] :: > 60%
Cc1cc(C)c(C(C)(C)CN)cc1C(=O)NCC(=O)Nc1nc(-c2cccc(-c3ccncc3)c2)cs1 [Compound 89] :: > 30%
CCC(C)(O)c1cccc(C(=O)NCC(=O)Nc2nc(-c3cccc(-c4ccncc4)c3)cs2)c1 (centres unmarked) [Compound 79] :: > 50%
Cn1ccc2ccc(-c3csc(NC(=O)CNC(=O)c4ccc5c(c4)C4(CCO5)COC4)n3)cc2c1=O [Compound 382] :: > 50%
C[C@@]1(C#N)COCc2ccc(C(=O)NCC(=O)Nc3nc(-c4ccccc4)cs3)cc21 [Compound 323] :: > 95%

What value of Emax has been recorded for this entry: C[C@]1(CN)CCc2c(C(=O)NCC(=O)Nc3nc(-c4cccc(-c5ccncc5)c4)cs3)cccc21 [Compound 243]
> 50%

* * *

Overview of reported IC50 across a group of compounds:
biological target: BRM (Homo sapiens, UniProt P51531); assay: ATPase catalytic activity assay of BRM (ADP-Glo); format: biochemical; conditions: read-out: BRM IC50 (μM)*

Here are 2 compounds together with their reported answers.
C[C@@H]1CN(c2cccc(-c3csc(NC(=O)CNC(=O)c4ccc5c(c4)[C@]4(CCC[C@@H]4O)CC5)n3)c2)C[C@H](C)O1 [Compound 189] :: 0.1 to 1 µM
C[C@@]1(C#N)COCc2ccc(C(=O)NCC(=O)Nc3nc(-c4cc(F)c5c(c4)OCC5)cs3)cc21 [Compound 353] :: < 0.1 µM

Moving on to another compound below.
What value of IC50 has been recorded for this entry: C[C@@H]1CN(c2cccc(-c3csc(NC(=O)CNC(=O)c4cnc5c(c4)[C@](C)(CO)CC5)n3)c2)C[C@H](C)O1 [Compound 143]
0.1 to 1 µM

* * *

target: BRM (Homo sapiens, UniProt P51531); experiment: ATPase catalytic activity assay of BRM (ADP-Glo); assay type: biochemical
property measured: BRM Max % Inhibition

Here are 8 compounds together with their reported answers.
Cn1ccc2ccc(-c3csc(NC(=O)CNC(=O)c4ccc5c(c4)[C@@](C)(CO)CC5)n3)cc2c1=O :: >90%
C[C@@H]1CN(c2cccc(-c3csc(NC(=O)CNC(=O)c4cccc([C@]5(C(F)F)CCOC5)c4)n3)c2)C[C@H](C)O1 :: >95%
C[C@@H]1CN(c2cccc(-c3csc(NC(=O)CNC(=O)c4cccc([C@@H]5COC[C@H]5O)c4)n3)n2)C[C@H](C)O1 :: >80%
C[C@@H]1CN(c2cccc(-c3csc(NC(=O)CNC(=O)c4ccc5c(c4)CCCO5)n3)n2)C[C@H](C)O1 :: >65%
CC(C)(N)c1cccc(C(=O)NCC(=O)Nc2nc(-c3cccc(-c4ccncc4)c3)cs2)c1 :: >80%
C[C@@H]1CN(c2cccc(-c3csc(NC(=O)CNC(=O)c4ccc5c(c4)[C@]4(CCO4)COC5)n3)n2)C[C@H](C)O1 :: >95%
C[C@@]1(F)COCc2ccc(C(=O)NCC(=O)Nc3nc(-c4cc(F)cc(C#N)c4)cs3)cc21 :: >90%
C[C@@H]1CN(c2cccc(-c3csc(NC(=O)CNC(=O)c4cccc(C(C)(C)CN)c4)n3)c2)C[C@H](C)O1 :: >95%

What value of BRM Max % Inhibition has been recorded for this entry: C[C@@]1(F)COCc2ccc(C(=O)NCC(=O)Nc3nc(-c4cccc(C#N)c4)cs3)cc21
>95%

What value of BRM Max % Inhibition has been recorded for this entry: CC1(CO)CCc2ccc(C(=O)NCC(=O)Nc3nc(-c4cccc(-c5ccncc5)c4)cs3)cc21 (single isomer, unassigned) [Compound 107]
>90%

What value of BRM Max % Inhibition has been recorded for this entry: CC1(C#N)CCOc2ccc(C(=O)NCC(=O)Nc3nc(-c4cccc([C@H]5CC5(F)F)n4)cs3)cc21 (stereo in doubt)
>95%

What value of BRM Max % Inhibition has been recorded for this entry: C[C@@H]1CN(c2cccc(-c3csc(NC(=O)CNC(=O)c4ccc5c(c4)[C@](C)(CO)CN5C)n3)c2)C[C@H](C)O1
>90%

What value of BRM Max % Inhibition has been recorded for this entry: C[C@@]1(C#N)COCc2ccc(C(=O)NCC(=O)Nc3nc(-c4cc(F)cc(N5CCC5)c4)cs3)cc21
>95%

What value of BRM Max % Inhibition has been recorded for this entry: C[C@@H]1CN(c2cccc(-c3csc(NC(=O)CNC(=O)c4ccc5c(c4)CCCOC5)n3)n2)C[C@H](C)O1
>95%

Values from patent US12685735B2
